Tested on: SR leukemia
Assay: NCI-60 one-dose screen, 48 h
Conditions: 10 µM
Experimental: Growth inhibition of the SR human tumor cell line is measured as a screen for anti-cancer activity. Cells are grown in 96 well plates and exposed to the test compound for 48 hours. Compounds are tested at a single concentration, which is 10^-5 M for most compounds. The reported endpoint is percent growth (GI% or GIPRCNT), where numbers from 0 - 100% represent growth inhibition, and numbers from -100% - 0 represent cell death. For example, a value of 40 represents 60% growth inhibition. […]
The panel holds about 83,000 compounds, 20% with a hit somewhere; the sample as a whole holds those more often. The source made the active and inactive calls. The calls were made as follows: active = growth percent below 10; inactive = the rest.
The categories you may choose from are yes = active, no = inactive

CCC(C)[C@H]1C(=O)O[C@H](C(C)C)C(=O)N(C)[C@@H](C(C)C)C(=O)O[C@H](C(C)C)C(=O)N(C)[C@@H](C(C)C)C(=O)O[C@H](C(C)C)C(=O)N1C (some centres not stated)	yes
CC1=C2C(=C[C@@](C)(COC(=O)c3ccc(S(=O)(=O)F)cc3)[C@@H]2O)C(=O)[C@](C)(O)C12CC2	yes
NC1CCc2cc(O)c(O)cc2C1 (configuration not stated)	yes
COc1cc2c(cc1OC)[C@@H]1N(CC2)C(=O)c2ccccc2[C@@]1(C)C(=O)O	no
CC1=C(CCC=NNC(N)=O)C2=C(C)C3(CC3)[C@@](C)(O)C(=O)C2=C1	no

What did the test return for CC1=C2C(=C[C@@](C)(COC(=O)c3ccc(S(=O)(=O)F)cc3)[C@@H]2OC(=O)c2ccc(S(=O)(=O)F)cc2)C(=O)[C@](C)(O)C12CC2 ? no

What did the test return for CC1=C[C@H]2O[C@@H]3C[C@H]4OC(=O)/C=C\C=C\[C@H]([C@@H](C)O)OCC/C(C)=C/C(=O)OC[C@@]2(CC1)[C@]4(C)[C@]31CO1 ? yes
